assay_summary: inhibitors of E-selectin induction by TNFa, primary screen, imaging, HUVEC, immunofluorescence, MLSMR starter and 10KST1 sets (AID 487);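 further: 100% = median nuclei count of all wells on the same plate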
protocol_conditions: HUVEC TNFalpha-induced E-selectin immunofluorescence imaging, at 2 µM; measured here: cell number, toxicity

# molecule, nuclei count, %
data = [
    ("COc1ccc(C)cc1S(=O)(=O)Nc1cccnc1", 90),
    ("COc1cccc(-c2csc3nnc(SCC(=O)c4ccc(NC(C)=O)cc4)n23)c1", 176),
    ("Cc1ccccc1Cc1c(C)nc2c(C(=O)N3CCN(Cc4ccc5c(c4)OCO5)CC3)cnn2c1C", 95.4),
    ("CCOC(=O)N1CCN(C(=O)c2cccn3c(=O)c4sccc4nc23)CC1", 114),
    ("CC1=C(C(=O)NC2CCC(C)CC2)C2(CCC(C)CC2)OC1=O (configuration not stated)", 126),
    ("CC(C)(C)c1nnc(NC(=O)C2CCN(c3ncccn3)CC2)s1", 111),
    ("COC(=O)Cc1c(C)c2ccc(OCC(=O)N3CCOCC3)cc2oc1=O", 74.6),
    ("COc1ccc(CCNc2oc(COc3ccccc3)nc2C#N)cc1", 140),
    ("CCC1(C)Cc2c(sc(NC(=O)CCC(=O)O)c2C#N)CO1 (configuration not stated)", 165),
    ("COc1ccccc1C1CC(c2ccc(Cl)cc2)Nc2nc(N)nn21 (configuration not stated)", 146),
    ("COC(=O)Nc1ccc(NC(C)=O)cc1", 94.6),
    ("N#CC1=C(SCC(=O)c2cc3ccccc3oc2=O)NC(=O)C(C#N)C12CCCC2 (configuration not stated)", 123),
    ("O=C(O)C1CC=CCC1C(=O)Nc1cc(Cl)ccc1Cl (configuration not stated)", 102),
    ("Cc1ccc(C)c2[nH]c(=O)c(CN(CCN3CCCC3)C(=O)Nc3cccc(Cl)c3)cc12", 94.3),
    ("CCOC(=O)c1sc(NC(=O)CSc2nnc(-c3ccc(OC)cc3)n2CCOC)nc1C", 140),
    ("O=C(CSCc1cccs1)N1CCCC1", 87.8),
    ("CSc1nc2[nH]c3c(c2c2ncnn12)CCCC3", 171),
    ("O=S(=O)(NC1CCCC1)c1ccccc1Cl", 116),
    ("COc1ccc(N2CC(=O)N(c3ccc(OC)c(OC)c3)CC2=O)cc1OC", 142),
    ("NC(=O)C(Cc1ccccc1)NS(=O)(=O)c1ccc(N2CCCC2=O)cc1 (configuration not stated)", 95.5),
    ("Cc1cc(NS(=O)(=O)Cc2ccccc2)cc(C)c1OCC(=O)N1CCOCC1", 104),
    ("CC(C)OC(=O)c1cc(=O)[nH]c2ccccc12", 92.6),
    ("Cc1ccc(-c2ccc(SCC(=O)Nc3nonc3C)nn2)cc1", 108),
    ("COc1cccc(Oc2cn[nH]c2-c2ccc(O)cc2O)c1", 101),
    ("O=C(NCc1ccco1)c1ccc(=O)[nH]n1", 91.1),
    ("CN1C(=O)NC(c2ccccc2)C2=C1CN(Cc1ccccc1)C2=O (configuration not stated)", 139),
    ("O=C(COC(=O)c1cc(-c2ccco2)nc2ccccc12)NCc1ccc2c(c1)OCO2", 108),
    ("COc1cc(C2c3c(oc4c(C)cc(C)cc4c3=O)C(=O)N2Cc2cccnc2)ccc1O (configuration not stated)", 99.8),
    ("CC1(C)NC(=O)N(CC(O)CN2CCCC2)C1=O (configuration not stated)", 72.8),
    ("C=CCc1c(C)nc(SC)nc1Nc1ccc(C(=O)O)cc1", 118),
    ("CCN(CC)CCNc1ncnc2c1[nH]c1ccc(OC)cc12", 150),
    ("CCN(CCCNC(=O)CC1Oc2ccc(C)cc2NC1=O)Cc1ccccc1 (configuration not stated)", 128),
]
